# System: MCF-7 breast cancer cell line
# protocol-notes: SRB cell viability assay, MCF-7
# Assay type: cell-based, human
# test-settings: Homo sapiens, MCF7, 72 h, read-out: IC50 MCF-7
attribute-measured: pIC50
For clarity, pIC50 is expressed as the negative log10 of concentration in mol/L.

[[record]]
molecule = "Cc1ccc(NC(=O)CN2C(=O)C(=NNc3ccc(S(N)(=O)=O)cc3)c3ccccc32)cc1"
value_measured = 6.06


Proceed to the following item.
Lab note: COc1cccc2c1C(=O)c1c(O)c3c(c(O)c1C2=O)C[C@@](O)(C(=O)CO)C[C@@H]3O[C@H]1C[C@H](N)[C@H](O)[C@H](C)O1 [Doxorubicin, reference compound] gave pIC50 of 6.20
